Would you mind telling me the reported solubility kinetic of each entry?
experiment: Kinetic aqueous solubility of the compound at pH 7.4; type: physicochemical; details: buffer, read-out: Kinetic_solubility
Write the number in µM without appending the unit.

query: Can you share its solubility kinetic? I mean this compound: `Nc1cc(S(=O)(=O)c2ccccc2OC(F)(F)F)cnc1C(=O)NC[C@@H](O)C(F)(F)F`
result: 75

query: Look at this compound and give its reported solubility kinetic. `C[C@H](O)CNC(=O)c1ncc(S(=O)(=O)c2ccc(OC(F)(F)F)cc2)cc1N`
result: 37

query: For `CC(C)(O)CNC(=O)c1ncc(S(=O)(=O)c2ccc(OC(F)(F)F)cc2)cc1N` , what is its reported solubility kinetic?
result: 37

###

experiment: Thermodynamic solubility of the compound in the FASSIF medium; format: physicochemical; details: read-out: Therm_solubility
VALUE_KIND: solubility thermodynamic (µM)
Report only the number, with the unit µM understood.

query: Any idea what its solubility thermodynamic is? The compound is `C[C@H](O)CNC(=O)c1ncc(S(=O)(=O)c2ccc(OC(F)(F)F)cc2)cc1N`
result: 83

###

test: Clearance in Sprague-Dawley rat at 1 mg/kg, iv; assay type: ADME, organism-based; settings: in vivo
For each record, write down the corresponding clearance.
Give a bare numeral; the unit mL/min/kg is implied.

query: Endpoint output: clearance of `Nc1cc(S(=O)(=O)c2ccc(F)cc2)cnc1C(=O)NC[C@@H](O)C(F)(F)F` . Value?
result: 2.17

query: What value of clearance has been reported for the following compound? `COc1ccc(S(=O)(=O)c2cc(C(N)=O)c(NC(=O)C(C)(C)O)s2)cc1`
result: 2.05

query: Endpoint output: clearance of `Nc1cc(S(=O)(=O)c2ccccc2OC(F)(F)F)cnc1C(=O)NC[C@@H](O)C(F)(F)F` . Value?
result: 9.83

###

molecular target: Cystic fibrosis transmembrane conductance regulator (Homo sapiens, UniProt P13569, F508DEL); assay: Potentiation of CFTR F508del mutant (unknown origin) expressed in human CFBE41o- cells co-expressing YFP incubated for 10 mins by halide potentiator assay; type: cell-based
Sequence (P13569 as listed by the source): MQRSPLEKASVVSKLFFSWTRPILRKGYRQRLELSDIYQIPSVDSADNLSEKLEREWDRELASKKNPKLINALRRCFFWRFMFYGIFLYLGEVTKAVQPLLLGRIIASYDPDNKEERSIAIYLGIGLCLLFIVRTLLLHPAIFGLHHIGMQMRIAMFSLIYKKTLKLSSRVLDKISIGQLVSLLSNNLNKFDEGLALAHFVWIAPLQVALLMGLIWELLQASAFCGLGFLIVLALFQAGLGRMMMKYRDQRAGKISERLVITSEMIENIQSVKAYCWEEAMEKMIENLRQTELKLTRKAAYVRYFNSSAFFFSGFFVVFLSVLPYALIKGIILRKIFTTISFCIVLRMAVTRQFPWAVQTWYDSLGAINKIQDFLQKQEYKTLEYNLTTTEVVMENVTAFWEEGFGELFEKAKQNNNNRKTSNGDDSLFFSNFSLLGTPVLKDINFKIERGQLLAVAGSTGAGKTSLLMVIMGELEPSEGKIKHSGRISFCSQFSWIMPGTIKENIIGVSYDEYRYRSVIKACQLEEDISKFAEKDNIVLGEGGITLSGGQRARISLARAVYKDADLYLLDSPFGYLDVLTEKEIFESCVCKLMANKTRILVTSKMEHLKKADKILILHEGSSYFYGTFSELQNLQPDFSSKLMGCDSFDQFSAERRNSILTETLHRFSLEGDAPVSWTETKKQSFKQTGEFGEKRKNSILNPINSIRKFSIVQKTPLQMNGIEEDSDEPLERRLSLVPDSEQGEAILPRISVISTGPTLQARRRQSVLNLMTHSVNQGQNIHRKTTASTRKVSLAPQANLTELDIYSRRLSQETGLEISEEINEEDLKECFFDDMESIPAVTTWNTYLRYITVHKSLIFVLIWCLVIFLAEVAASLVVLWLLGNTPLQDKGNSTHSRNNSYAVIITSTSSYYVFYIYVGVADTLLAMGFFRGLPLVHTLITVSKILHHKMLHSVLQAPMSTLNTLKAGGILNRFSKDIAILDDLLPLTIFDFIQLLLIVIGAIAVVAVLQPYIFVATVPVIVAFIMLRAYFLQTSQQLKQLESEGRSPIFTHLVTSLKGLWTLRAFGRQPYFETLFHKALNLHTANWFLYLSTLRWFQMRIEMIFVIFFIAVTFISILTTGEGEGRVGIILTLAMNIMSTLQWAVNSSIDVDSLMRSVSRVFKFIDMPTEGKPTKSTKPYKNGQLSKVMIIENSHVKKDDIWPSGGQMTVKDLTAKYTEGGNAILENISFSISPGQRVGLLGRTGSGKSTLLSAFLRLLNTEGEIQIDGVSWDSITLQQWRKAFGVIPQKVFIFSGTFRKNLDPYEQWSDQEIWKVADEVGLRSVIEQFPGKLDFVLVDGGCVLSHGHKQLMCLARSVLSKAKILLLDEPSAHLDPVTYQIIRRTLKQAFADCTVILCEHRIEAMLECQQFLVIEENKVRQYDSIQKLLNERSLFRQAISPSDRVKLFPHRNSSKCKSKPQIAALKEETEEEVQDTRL
For each of the compounds below, state its EC50.
Quick note: give the figure in nM, leave out the unit.

query: Which EC50 reading was recorded for the compound Nc1cc(S(=O)(=O)N2CCC(OC(F)(F)F)CC2)cnc1C(=O)NCC(O)C(F)(F)F (stereo not drawn) ?
result: 5

query: // EC50 lookup, key: `Nc1cc(S(=O)(=O)c2ccc(F)cc2)cnc1C(=O)NC[C@@H](O)C(F)(F)F`
result: 7.8

query: Name the reported EC50 value associated with the compound `CC(C)(C)C(=O)Nc1sc(S(=O)(=O)c2ccc(F)cc2)cc1C(N)=O`
result: 352

query: Returns the measured EC50 for the input compound. Input: `Nc1cc(S(=O)(=O)c2ccc(F)cc2)cnc1C(=O)N1CC(O)(C(F)(F)F)C1`
result: 1.1

query: Need EC50, item `COc1ccc(S(=O)(=O)c2cc(C(N)=O)c(NC(=O)C(C)(C)O)s2)cc1`
result: 20

###

molecular target: Cystic fibrosis transmembrane conductance regulator (Homo sapiens, UniProt P13569, F508DEL); test: Potentiation of CFTR F508del mutant (unknown origin) expressed in human CFBE41o- cells co-expressing YFP incubated for 10 mins by halide potentiator assay; assay type: cell-based
pEC50: −log10 of the molar value.
VALUE_KIND: pEC50

query: For the compound `CN(C[C@@H](O)C(F)(F)F)C(=O)c1ncc(S(=O)(=O)c2ccc(F)cc2)cc1N` , what pEC50 is on record?
result: < 5.70

query: // pEC50 lookup, key: `Nc1cc(S(=O)(=O)c2ccccc2OC(F)(F)F)cnc1C(=O)NC[C@@H](O)C(F)(F)F`
result: > 9.51

query: Which measured pEC50 value corresponds to `Nc1cc(S(=O)(=O)c2ccc(C(F)(F)F)cc2)cnc1C(=O)N1CCC[C@H]1CO` ?
result: < 5.70
